Source: ChEMBL document CHEMBL4392864

# assayedTarget: UniProt:P29350
# Sequence (P29350 whole entry): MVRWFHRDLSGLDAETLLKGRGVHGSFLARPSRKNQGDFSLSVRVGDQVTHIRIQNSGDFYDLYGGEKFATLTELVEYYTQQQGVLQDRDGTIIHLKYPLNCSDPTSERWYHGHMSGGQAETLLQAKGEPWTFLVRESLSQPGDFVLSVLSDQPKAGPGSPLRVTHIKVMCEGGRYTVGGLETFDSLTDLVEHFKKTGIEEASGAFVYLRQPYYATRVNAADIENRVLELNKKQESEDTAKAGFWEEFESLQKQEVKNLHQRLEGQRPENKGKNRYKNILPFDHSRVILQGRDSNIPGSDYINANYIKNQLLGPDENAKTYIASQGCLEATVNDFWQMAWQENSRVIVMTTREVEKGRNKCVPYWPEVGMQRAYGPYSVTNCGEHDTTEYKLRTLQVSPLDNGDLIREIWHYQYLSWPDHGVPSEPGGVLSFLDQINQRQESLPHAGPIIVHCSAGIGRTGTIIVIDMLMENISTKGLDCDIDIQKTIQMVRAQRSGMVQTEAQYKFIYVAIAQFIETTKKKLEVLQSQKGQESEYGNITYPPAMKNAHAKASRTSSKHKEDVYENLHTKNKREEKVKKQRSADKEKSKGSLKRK
# measurementNotes: Inhibition of recombinant human SHP1 expressed in Escherichia coli […] preincubated for 15 mins followed by substrate addition and measured after 60 mins
pIC50: −log10 of the molar value.
I'd be grateful if you could share measured pIC50 for these entries.

Looking for the measured pIC50 of CC[C@@H](C)C1=C2N=C3OC=CC=C[C@]3(OC)C(=O)N2[C@@H](Cc2ccccc2)C(=O)N1 , can you help?
4.06 to 4.85

Quick check: pIC50 of C[C@@H]1C(=O)N/C(=C\c2ccccc2)c2nc3c(O)cccc3c(=O)n21 ?
4.06 to 4.85

Item under review: C[C@@H]1C(=O)N[C@](O)(Cc2ccccc2)c2nc3c(c(=O)n21)C=CC=CO3 . Reported pIC50?
4.06 to 4.85
